PROPERTY_LABEL: intrinsic clearance, human liver microsomes (mL/min/kg)

> print(dat)
                                   compound  qual  quantitative.readout
1   c1ccc(Nc2nc(N3CCNCC3)nc(N3CCOCC3)n2)cc1     ≤                  4.74
2   CN1N=C(SCc2ccc(Cl)cc2Cl)Sc2c1cnn(C)c2=O     =                   137
3  Cc1nccc(-c2cccc(NCC(=O)NCC(=O)N3CCCC3)c2)n1     ≤                  4.74
4          CCCc1ncncc1C(=O)NCc1noc(C2CC2)n1     ≤                  4.74
5  Cc1ncc(CN2CCC(Nc3ccc4nnnn4n3)C(C)C2)s1 (stereo not drawn)     =                  16.2
6  O=C(c1ccc(Cl)cc1)N1CCC[C@@H](C(=O)N2CCc3ccccc3C2)C1     =                   360
7  CNC(=O)C1(Cc2ccc(-c3cccnc3)cc2)CCN(Cc2ccccc2Cl)C1 (stereo not drawn)     =                   446
8  NC(=O)c1cnc(NC2CC2)nc1CCNC(=O)C1(c2cccc(F)c2)CCOCC1     =                  37.7

----------
Reported values of intrinsic clearance, rat liver microsomes for individual entries
PROPERTY_LABEL: intrinsic clearance, rat liver microsomes

> print(dat)
                             compound.smiles            result
 1                O=C(O)Cc1ccc(Oc2ccncc2)cc1  ≤ 10.7 mL/min/kg
 2  C=C1C[C@@H]2[C@H](CC[C@]3(C)C(=O)CC[C@@H]23)[C@@]2(C)C=CC(=O)C=C12  ≤ 10.7 mL/min/kg
 3              CCN(CC)C(=O)N1CCC(C(=O)O)CC1  ≤ 10.7 mL/min/kg
 4             Cc1n[nH]c(C)c1CCC(=O)N1CCOCC1  ≤ 10.7 mL/min/kg
 5                   N#Cc1ccc(OCCn2cccn2)cc1  ≤ 10.7 mL/min/kg
 6  CC(=O)N1CCN(C(=O)[C@H]2CCCCN2C(=O)OC(C)(C)C)CC1  ≤ 10.7 mL/min/kg
 7                  CC(=O)N1CCC(c2ccccn2)CC1  ≤ 10.7 mL/min/kg
 8               Cn1cnnc1NC(=O)c1cnn2c1CCCC2  ≤ 10.7 mL/min/kg
 9  CC(C)(O)CCn1cc2cc(NC(=O)c3cccc(C(F)F)n3)c(OCC3COC3)cc2n1    72.1 mL/min/kg
10  Cc1cc(N2CCN(C(=O)OC(C)(C)C)[C@H](C)C2)ncn1     124 mL/min/kg
11                N#CCCN(c1ncnc2sccc12)C1CC1     231 mL/min/kg
12   Cc1ccc(-c2nc(C(=O)N3CCc4ccccc4C3)cs2)o1    3610 mL/min/kg
13          O=C(CCn1nnc2ccccc2c1=O)Nc1ccncc1    84.8 mL/min/kg
14    O=C(NCC1(Sc2ccccc2)CC1)c1ccc(=O)[nH]n1     567 mL/min/kg
